Source: patent US9737545B2

system-under-test: wildtype HIV-1 protease (Human immunodeficiency virus type 1 group M subtype B)
pIC50: −log10 of the molar value.
Returns true if the recorded pIC50 is greater than or equal to 9, and false otherwise.

Here are 5 compounds together with their reported answers.
- COC(=O)N[C@H](C(=O)Nc1ccccc1CC[C@@H]1CN[C@H](c2nc3ccc(Br)cc3[nH]2)CO1)C(c1ccccc1)c1ccccc1 [Example 11]: true
- COC(=O)N[C@H](C(=O)Nc1ccccc1CC[C@@H]1CN[C@H](c2cc3cccnc3[nH]2)CO1)C(c1ccccc1)c1ccccc1 [Example 62]: false
- COC(=O)N[C@H](C(=O)Nc1ccccc1CC[C@@H]1CN[C@H](c2nnc(Cc3ccccc3)[nH]2)CO1)C(c1ccccc1)c1ccccc1 [Example 81]: false
- COC(=O)N[C@H](C(=O)Nc1ccccc1CC[C@@H]1CN[C@H](c2nc3cccc(Cl)c3[nH]2)CO1)C(c1ccccc1)c1ccccc1 [Example 13]: true
- COC(=O)N[C@H](C(=O)Nc1ccccc1CC[C@@H]1CN[C@H](c2cnnn2Cc2ccccc2)CO1)C(c1ccccc1)c1ccccc1 [Example 51]: false

Could you verify whether the entry COC(=O)N[C@H](C(=O)Nc1ccccc1CC[C@@H]1CN[C@H](c2cnc(-c3ccccc3)[nH]2)CO1)C(c1ccccc1)c1ccccc1 [Example 46] shows pIC50 of no less than 9?
false

Could you verify whether the entry COC(=O)N[C@H](C(=O)Nc1ccccc1CC[C@@H]1CN[C@H](c2nc3c(O)cccc3[nH]2)CO1)C(c1ccccc1)c1ccccc1 [Example 15] shows pIC50 of no less than 9?
true

Could you verify whether the entry COC(=O)N[C@H](C(=O)Nc1ccccc1CC[C@@H]1CN[C@H](c2cn(Cc3ccccc3)nn2)CO1)C(c1ccccc1)c1ccccc1 [Example 50] shows pIC50 of no less than 9?
false

Could you verify whether the entry COC(=O)N[C@H](C(=O)Nc1ccccc1CC[C@@H]1CN[C@H](c2nc3ccccc3[nH]2)CO1)C(c1ccccc1)c1ccccc1 [Example 1] shows pIC50 of no less than 9?
true

====

System: wildtype HIV-1 protease (Human immunodeficiency virus type 1 group M subtype B) | Read-out: IC50
# number then unit; no other words

For orientation, consider the following solved cases.
- N[C@H](C(=O)Nc1cncc(F)c1CC[C@@H]1CN[C@H](c2nc3cc(F)c(F)cc3[nH]2)CO1)C(c1ccc(F)cc1)c1ccc(F)cc1 [Example 93]: 0.02 nM
- COC(=O)N[C@H](C(=O)Nc1ccccc1CC[C@@H]1CN[C@H](c2cc3cccc(Cl)c3[nH]2)CO1)C(c1ccccc1)c1ccccc1: 96.4 nM
- COC(=O)N[C@H](C(=O)Nc1ccccc1CC[C@@H]1CN[C@H](c2cn(C)c(=O)[nH]2)CO1)C(c1ccccc1)c1ccccc1: 310 nM
- O=C(COc1ccccc1Cl)Nc1cccc(F)c1CC[C@@H]1CN[C@H](c2nc3ccccc3[nH]2)CO1: 31 nM
- COC(=O)N[C@H](C(=O)Nc1cncc(F)c1CC[C@@H]1CN[C@H](c2nc3ccccc3[nH]2)CO1)C(c1ccc(F)cc1)c1ccc(F)cc1: 0.01 nM

Look up IC50: "COC(=O)N[C@H](C(=O)Nc1ccccc1CC[C@@H]1CN[C@H](c2nc3ccc(C)cc3[nH]2)CO1)C(c1ccccc1)c1ccccc1"
0.0923 nM

Look up IC50: "O=C(CC(c1ccccc1)c1ccccc1)Nc1cccc(F)c1CC[C@@H]1CN[C@H](c2nc3ccccc3[nH]2)CO1"
0.65 nM

Look up IC50: "COC(=O)N[C@H](C(=O)Nc1ccccc1CC[C@@H]1CN[C@H](c2cc3c(Cl)cccc3[nH]2)CO1)C(c1ccccc1)c1ccccc1"
88.6 nM

====

Reported log10 IC50 is given for each of the following compounds.
system-under-test: wildtype HIV-1 protease (Human immunodeficiency virus type 1 group M subtype B, UniProt P04585)
Values reflect log10 of reported IC50 (nM).

For orientation, consider the following solved cases.
• C#C[C@@H]1CO[C@H](CCc2ccccc2NC(=O)[C@@H](NC(=O)OC)C(c2ccccc2)c2ccccc2)CN1 [Example 49] = 2.92
• N[C@H](C(=O)Nc1cncc(F)c1CC[C@@H]1CN[C@H](c2nc3cc(C(=O)NCC(F)(F)F)ccc3[nH]2)CO1)C(c1ccccc1)c1ccccc1 [Example 101] = 1.41

Look up log10 IC50: O=C(C[C@@H](c1ccc(F)cc1)c1ccncc1F)Nc1cccc(F)c1CC[C@@H]1CN[C@H](c2nc3ccccc3[nH]2)CO1 [Example 73]
-2.00

Look up log10 IC50: COC(=O)N[C@H](C(=O)Nc1ccccc1CC[C@@H]1CN[C@H](c2nnc(C)o2)CO1)C(c1ccccc1)c1ccccc1 [Example 80]
2.34

====

system-under-test: wildtype HIV-1 protease (Human immunodeficiency virus type 1 group M subtype B, UniProt P04585)
Reported pIC50 is given for each of the following compounds.
By convention, pIC50 is the negative base-10 log of a molar concentration.

Look up pIC50: COC(=O)N[C@H](C(=O)Nc1ccccc1CC[C@@H]1CN[C@H](c2nc(C)c(C)[nH]2)CO1)C(c1ccccc1)c1ccccc1 [Example 48]
8.74

Look up pIC50: COC(=O)N[C@H](C(=O)Nc1ccccc1CC[C@@H]1CN[C@H](c2nc3cccc(Br)c3[nH]2)CO1)C(c1ccccc1)c1ccccc1 [Example 14]
9.23

Look up pIC50: COC(=O)N[C@H](C(=O)Nc1ccccc1CC[C@@H]1CN[C@H](c2nc3c(C)cc(Cl)cc3[nH]2)CO1)C(c1ccccc1)c1ccccc1 [Example 24]
7.79

Look up pIC50: O=C(C[C@H](c1ccccc1)c1ccc(F)cc1)Nc1cncc(F)c1CC[C@@H]1CN[C@H](c2nc3ccccc3[nH]2)CO1 [Example 71]
11.00

Look up pIC50: COC(=O)N[C@H](C(=O)Nc1ccccc1CC[C@@H]1CN[C@H](c2nc3c(C)ccnc3[nH]2)CO1)C(c1ccccc1)c1ccccc1 [Example 23]
8.50

Look up pIC50: COC(=O)N[C@H](C(=O)Nc1ccccc1CC[C@@H]1CN[C@H](c2cnc(C)[nH]2)CO1)C(c1ccccc1)c1ccccc1 [Example 47]
6.42

Look up pIC50: COC(=O)N[C@H](C(=O)Nc1ccccc1CC[C@@H]1CN[C@H](c2nc3cc(F)c(Br)cc3[nH]2)CO1)C(c1ccccc1)c1ccccc1 [Example 20]
9.28

Look up pIC50: Cc1cc2nc([C@@H]3CO[C@H](COc4c(F)cccc4NC(=O)C[C@@H](c4ccc(F)cc4)c4cc(F)cc(F)c4)CN3)[nH]c2cc1C [Example 104]
8.96

====

System: wildtype HIV-1 protease (Human immunodeficiency virus type 1 group M subtype B) | Read-out: pIC50
By convention, pIC50 is the negative base-10 log of a molar concentration.

For orientation, consider the following solved cases.
• COC(=O)N[C@H](C(=O)Nc1ccccc1CC[C@@H]1CN[C@H](c2ncc[nH]2)CO1)C(c1ccccc1)c1ccccc1 [Example 86] = 8.74
• COC(=O)N[C@H](C(=O)Nc1ccccc1CC[C@@H]1CN[C@H](c2ncc[nH]2)[C@@H](CSc2nnc(-c3ccncc3)o2)O1)C(c1ccccc1)c1ccccc1 = 9.22

Now take the following molecule into account.
Value wanted: pIC50 (wildtype HIV-1 protease (Human immunodeficiency virus type 1 group M subtype B)) of entry COC(=O)N[C@H](C(=O)Nc1ccccc1CC[C@@H]1CN[C@H](c2nc3cc(Cl)c(Cl)cc3[nH]2)CO1)C(c1ccccc1)c1ccccc1 [Example 12]
9.15

====

system-under-test: wildtype HIV-1 protease (Human immunodeficiency virus type 1 group M subtype B, UniProt P04585)
endpoint-name: pIC50
By convention, pIC50 is the negative base-10 log of a molar concentration.

For orientation, consider the following solved cases.
• COC(=O)N[C@H](C(=O)Nc1ccccc1CC[C@@H]1CN[C@H](c2nnco2)CO1)C(c1ccccc1)c1ccccc1 [Example 82] = 6.55
• COC(=O)N[C@H](C(=O)Nc1cncc(F)c1CC[C@@H]1CN[C@H](c2nc3cc(C)c(C)cc3[nH]2)CO1)C(c1ccc(F)cc1)c1ccc(F)cc1 [Example 95] = 10.52
• COC(=O)N[C@H](C(=O)Nc1ccccc1CC[C@@H]1CN[C@H](c2csc(C)n2)CO1)C(c1ccccc1)c1ccccc1 [Example 83] = 7.05
• COC(=O)N[C@H](C(=O)Nc1ccccc1CC[C@@H]1CN[C@H](c2ncc(Cc3ccccc3)[nH]2)CO1)C(c1ccccc1)c1ccccc1 [Example 44] = 9.25
• Cc1cc2nc([C@@H]3CO[C@H](CCc4c(F)cncc4NC(=O)C[C@H](c4ccccc4)c4ccc(F)cc4)CN3)[nH]c2cc1C [Example 69] = 11.00

Look up pIC50: COC(=O)N[C@H](C(=O)Nc1ccccc1CC[C@@H]1CN[C@H](c2csc(Cc3ccccc3)n2)CO1)C(c1ccccc1)c1ccccc1 [Example 84]
6.82

Look up pIC50: COC(=O)N[C@H](C(=O)Nc1cncc(F)c1CC[C@@H]1CN[C@H](c2nc3cc(F)c(F)cc3[nH]2)CO1)C(c1ccc(F)cc1)c1ccc(F)cc1 [Example 76]
10.70

Look up pIC50: COC(=O)N[C@H](C(=O)Nc1ccccc1CC[C@@H]1CN[C@H](c2nc3cccc(C)c3[nH]2)CO1)C(c1ccccc1)c1ccccc1 [Example 3]
10.19

Look up pIC50: COC(=O)N[C@H](C(=O)Nc1ccccc1CC[C@@H]1CN[C@H](c2ncc(C)[nH]2)CO1)C(c1ccccc1)c1ccccc1 [Example 43]
8.99

Look up pIC50: COC(=O)N[C@H](C(=O)Nc1ccccc1CC[C@@H]1CN[C@H](c2nnc(-c3ccc(F)cc3)o2)CO1)C(c1ccccc1)c1ccccc1 [Example 79]
7.23
